This collection of values is drawn from PubChem BioAssay (NCI).

# Tested on: M14 melanoma
# testDetails: NCI-60 one-dose screen, 48 h
# conditionLabel: 10 µM unless noted
Compounds without any hit were thinned out: in the full panel of roughly 83,000, 20% have a hit. The source made the active and inactive calls. Rule for the calls: active = growth percent below 10; inactive = the rest.
Classes used: active, inactive

COc1ccc(/C=C/c2nc3ccccc3c(=O)n2-c2ccc(C#Cc3ccc(C(C)(C)C)cc3)cc2C)c(OC)c1 = inactive
Cc1ccccc1NC(=O)c1sc2nc3c(cc2c1N)C(=O)CCC3 = inactive
COC(=O)CSc1ccc(Cl)cc1 = inactive
CCOC(=O)C(CCCCC(NC(C)=O)(C(=O)OCC)C(=O)OCC)(NC(C)=O)C(=O)OCC = inactive
CN(C)CCCN1c2ccccc2CCc2ccccc21 = inactive
O=C(CC(=O)c1ccccc1F)Nc1ccc([N+](=O)[O-])cc1 = inactive
CCN(CC)CCCC(C)Nc1ccnc2ccc(Oc3ccccc3)cc12 (stereo unspecified) = active
COc1ccc(/C=C(\C#N)c2cc(OC)c(OC)c(OC)c2)cc1 = active
CCOC(=O)CCN(CCC(=O)OCC)c1ccccc1 = inactive
CN1C2CCC1/C(=C\c1ccc(Cl)cc1)C(=O)/C2=C/c1ccc(Cl)cc1 = inactive
COc1ccc(-n2c(COc3ccc(F)cc3)n[nH]c2=S)cc1 = inactive

###

# System: SK-MEL-5 melanoma
# testDetails: NCI-60 one-dose screen, 48 h (100 = growth as untreated, 0 = no growth, -100 = all killed)
# conditionLabel: 10 µM unless noted
This is part of a sample that, as a whole, favours compounds with a hit. Of some 83,000 tested, about 20% had one in any assay.
growth listing for selected compounds.
measure: growth (%)

CCOC(=O)C(CCCCC(NC(C)=O)(C(=O)OCC)C(=O)OCC)(NC(C)=O)C(=O)OCC = 104
O=S1(=O)NCCN1CCNc1nccc(-c2c(-c3cccc(O)c3)nc3sccn23)n1 = 94.4
CCNCCCn1c2c(c3ccc(Cl)cc3c1=O)C(=O)c1cc(OC)cnc1-2 = 18.3
CC(C)(C)[Si](C)(C)OC1[C@@H](O[Si](C)(C)C(C)(C)C)[C@@H](CNC(=O)NC(=O)NC(=O)CI)O[C@H]1n1cnc2c(NC(=O)Nc3ccccc3)ncnc21 (stereo partly drawn) = 102
CC(CN1CCN(CC(C)Nc2ccnc3cc(Cl)ccc23)CC1)Nc1ccnc2cc(Cl)ccc12 (stereo not drawn) = -97.6
CNC(=O)OC1C(O[C@H]2C[C@H]3[C@@H]4CC=C5C[C@@H](O)CC[C@]5(C)[C@H]4CC[C@]3(C)[C@H]2[C@H](C)C(=O)CCC(C)C)OCC(O)C1OC1OCC(O)C(O)C1OC(=O)c1ccc(OC)cc1 (stereo partly drawn) = -27.9
CCC1N=C(N)N=C(N)N1c1ccc(Cl)cc1 (stereo not drawn) = 49.5
Cn1c(=O)c2c(nc(N/N=C/c3ccccc3Cl)n2C)n(C)c1=O = 109

###

# Tested on: OVCAR-8 ovarian
# testDetails: NCI-60 one-dose screen, 48 h (100 = growth as untreated, 0 = no growth, -100 = all killed)
# conditionLabel: 10 µM unless noted
The panel holds about 83,000 compounds, 20% with a hit somewhere; the sample as a whole holds those more often. Activity calls are given as the source filed them. How the source made its calls: active means growth percent below 10; inactive means the rest.
measure: growth

COc1ccc(-c2nc(SCCC(C)C)nc(Nc3ccc(C(=O)O)cc3)c2C#N)cc1 = 93.9% (inactive)
Cc1ccc(NC(=O)c2sc3nc4c(cc3c2N)C(=O)CCC4)cc1Cl = 103% (inactive)
c1ccc(-c2nnn(-c3ccccc3)n2)cc1 = 107% (inactive)
CC1=CCC2C1CC=C(C)C(CC[C@H]1[C@@](C)(O)CCC3OC(C)(C)[C@H](OC(=O)c4ccccc4)CC[C@@]31C)C2(C)C (stereo not given in full) = 87.4% (inactive)
C=CCN(CC#N)CC=C = 100% (inactive)

###

# Tested on: HOP-62 NSCLC
# testDetails: NCI-60 one-dose screen, 48 h (100 = growth as untreated, 0 = no growth, -100 = all killed)
# conditionLabel: 10 µM unless noted
Compounds without any hit were thinned out: in the full panel of roughly 83,000, 20% have a hit.
# cutoff 40% applies to growth; >= gives yes, < gives no

CCN1C(=O)N(CC)C2C1NN=c1s/c(=C\c3ccc(Br)cc3)c(=O)n12 (centres undefined) = no
CCC1=CC2CN(C1)Cc1c([nH]c3ccccc13)[C@@](C(=O)OC)(c1cc3c(cc1OC)N(C)[C@H]1[C@@](O)(C(=O)OC)[C@H](OC(C)=O)[C@]4(CC)C=CCN5CC[C@]31[C@@H]54)C2 (some centres undefined) = no
COc1cc(C)c(Cl)cc1C1=NN(c2ccc(S(N)(=O)=O)cc2)C(/C=C/c2ccccc2)C1 (centres undefined) = yes
Clc1cc(Cl)cc(-c2cnc3nonc3n2)c1 = yes
S=C(Nc1ccc(Cl)cc1)Nc1ccc(Cl)cc1 (tested in a mixture with another compound) = no
COc1cc(/C=C/c2cc(/C=C/c3ccc(O)c(OC)c3)n(C(=O)Nc3ccc(F)c(Cl)c3)n2)ccc1O = no
CC1CCCN(CCCCOc2ccc(-c3ccc(C#N)cc3)cc2)C1 (centres undefined) = yes
Cc1ccc2c(C)c3c(ccc4ccccc43)c[n+]2c1 = yes
O=C(NCCN1CCCC1)n1cc(-c2ccncc2)c(-c2cc(O)cc(Cl)c2)n1 = yes
COc1cccc(/C(C)=N/NC(=O)CSc2nc3ccccc3c(=O)n2CCc2ccc(S(N)(=O)=O)cc2)c1 = no
COc1cc2ncnc(Nc3ccc(S(=O)(=O)Nc4cc(C)on4)cc3)c2cc1OCCCN1CCN(c2ccc([N+](=O)[O-])cc2)CC1 = yes
C[C@@H]1N=C(c2ccc3ccccc3c2)Nc2nc3ccccn3c2C1=O = no
CCOC(=O)C#Cc1c(C(=O)OCC)nnn1[C@@H]1O[C@H](COC(C)=O)[C@@H](OC(C)=O)[C@H]1OC(C)=O = yes
CC(C)(C)c1ccc(C(=O)Nc2sc3cc(O)ccc3c2C(N)=O)cc1 = yes
COc1cc(C2CC(c3ccc(Cl)cc3)=NN2C(C)=O)ccc1Oc1ccnc2cc(Cl)ccc12 (centres undefined) = no
CCOC(=O)c1cc(N)nc2ccccc12 = yes
O=C(CCl)Nc1cc(O)c2c(c1)C(=O)c1cccc(O)c1C2=O = no
CCOC(=O)Nc1ccc2nc(Sc3ccc(Cl)cc3)sc2c1 = no
Nc1ncnc2c1N=C(c1ccc3c(c1)OCO3)CC(c1ccc(Cl)cc1)N2 (centres undefined) = yes

###

# System: NCI-H522 lung
# testDetails: NCI-60 one-dose screen, 48 h
# conditionLabel: 10 µM unless noted
About 83,000 compounds went through this panel and 20% of them were active in at least one assay; those are over-represented in the sample as a whole. Active and inactive are the calls of the source. How the source made its calls: active means growth percent below 10; inactive means the rest.
Classes used: active, inactive

CN(C)CC(=O)c1ccc2cc(Br)c3ccccc3c2c1 = active
FC(F)(F)c1nn[nH]n1 = inactive
N/C(=N\OC(=O)c1ccccc1)C(Cc1ccccc1)C(=O)NOC(=O)c1ccccc1 (stereo unspecified) = active
O=C(CCl)Nc1cc(O)c2c(c1)C(=O)c1cccc(O)c1C2=O = active
CCN(CC)c1ccc(/C=C2/NC(=O)NC2=O)cc1 = inactive
NC(=O)N/N=C\c1ccc([N+](=O)[O-])o1 = inactive
C/C(=N\NC(=O)CSc1nc2ccccc2c(=O)n1CCc1ccc(S(N)(=O)=O)cc1)c1ccc(Br)cc1 = inactive
COc1cc(NCCC2CCCCN2)c2ncccc2c1OC (stereo unspecified) = active
CC(C)CC(=O)C(CCc1ccccn1)C(C)C (stereo unspecified) = inactive
CCNC(=O)c1ccc2c(c1)nc(-c1ccc(Cl)cc1)n2-c1cc(C(C)(C)C)[nH]n1 = inactive
NC(N)=N/N=C/c1ccc(Cl)cc1 = inactive

###

# Test system: KM12 colon
# testDetails: NCI-60 one-dose screen, 48 h (100 = growth as untreated, 0 = no growth, -100 = all killed)
# conditionLabel: 10 µM unless noted
Compounds without any hit were thinned out: in the full panel of roughly 83,000, 20% have a hit.
measure: growth (%)

COc1cc(NCCC2CCCCN2)c2ncccc2c1OC (stereo not given) = 87.5
COc1ccc(-c2nn(C(=O)NCCN(C)C)cc2-c2ccncc2)cc1Cl = 43.3
CCC1=CC2CN(C1)Cc1c([nH]c3ccccc13)[C@@](C(=O)OC)(c1cc3c(cc1OC)N(C)[C@H]1[C@@](O)(C(=O)OC)[C@H](OC(C)=O)[C@]4(CC)C=CCN5CC[C@]31[C@@H]54)C2 (stereo not given in full) = 0.29
COc1cc(-c2nn(C(=O)NCCN3CCN(C)CC3)cc2-c2ccncc2)ccc1Cl = 96.4
CC(C)CC1NC(=O)C(CC(C)C)N(CO)C1=O (stereo not given) = 110
CS(=O)(=O)c1ccc(C(=O)N/N=C/c2cccc3ccccc23)cc1 = 50.8
C=C1C(=O)O[C@H]2[C@H]1CC/C(COC(=O)NCc1c[nH]c3ccc(OC)cc13)=C\CC[C@@]1(C)O[C@@H]21 = 51.3
COc1ccc(-n2c(COc3ccc(F)cc3)n[nH]c2=S)cc1 = 110
NNC(=O)CSc1nc2scc(-c3ccccc3)c2c(=O)n1-c1ccccc1 = 108
CCOC(=O)N1C2CCC(C2)N1C(=O)OCC = 112
